The reported numbers originate from ChEMBL document CHEMBL1142742.

tested on: Trichophyton rubrum; assay: Minimum inhibitory concentration against Trichophyton rubrum (n=14); format: functional; conditions: Trichophyton rubrum; read-out: MIC50
readout kind: MIC50 (µg/mL)
Write the value in µg/mL as a bare number.

{"columns": ["molecule", "MIC50 [µg/mL]"],
 "data": [
  ["CCC(C)n1ncn(-c2ccc(N3CCN(c4ccc(OC[C@H]5CO[C@](Cn6cncn6)(c6ccc(Cl)cc6Cl)O5)cc4)CC3)cc2)c1=O (stereo partly drawn)", 0.01],
  ["CC(C)N1CCN(c2ccc(N3CCN(c4ccc(OC[C@@H]5OC[C@@](Cn6cncn6)(c6ccc(F)cc6F)O5)cc4)CC3)cc2)C1=O", 20]
]}

Kindly review the next molecule as well.
**Q:** Data request, read-out MIC50, for CCCn1c(=O)n(CC)c(=O)n(-c2ccc(N3CCN(c4ccc(OC[C@H]5OC[C@](Cn6cncn6)(c6ccc(F)cc6F)O5)cc4)CC3)cc2)c1=O
**A:** 3.2

----------
test system: Trichophyton rubrum; experiment: Minimum inhibitory concentration against Trichophyton rubrum (n=14); format: functional; conditions: Trichophyton rubrum; read-out: MIC50
# reported MIC50; entries follow
The figure you give is taken to be in µg/mL; do not add the unit.

Solved entries:
{"columns": ["compound", "test result"],
 "data": [
  ["CCN1C(=O)N(c2ccc(N3CCN(c4ccc(OC[C@H]5CO[C@](Cn6cncn6)(c6ccc(F)cc6F)O5)cc4)CC3)cc2)C(=O)C(C)(C)C1=O", 11.6],
  ["CCCn1c(=O)n(CC)c(=O)n(-c2ccc(N3CCN(c4ccc(OC[C@H]5CO[C@](Cn6cncn6)(c6ccc(F)cc6F)O5)cc4)CC3)cc2)c1=O", 3.2],
  ["CCN1C(=O)N(c2ccc(N3CCN(c4ccc(OC[C@@H]5CO[C@@](Cn6cncn6)(c6ccc(F)cc6F)O5)cc4)CC3)cc2)C(=O)C(C)(C)C1=O", 11.6]
]}

With those in mind, consider the next compound.
**Q:** Missing value: MIC50, Trichophyton rubrum, entry CN(C/C=C/C#CC(C)(C)C)Cc1cccc2ccccc12 [TERBINAFINE] . Fill in?
**A:** 0.01

----------
assay: Minimum inhibitory concentration against Microsporum species (n=38); assay type: functional; details: Microsporum; read-out: MIC90
readout kind: MIC90 (µg/mL)
Please respond with the number in µg/mL and leave the unit unwritten.

{"columns": ["molecule", "test result"],
 "data": [
  ["CC(C)N1CCN(c2ccc(N3CCN(c4ccc(OC[C@@H]5CO[C@@](Cn6cncn6)(c6ccc(F)cc6F)O5)cc4)CC3)cc2)C1=O", 0.32]
]}

**Q:** Need MIC90, item CCC(C)n1ncn(-c2ccc(N3CCN(c4ccc(OC[C@H]5CO[C@](Cn6cncn6)(c6ccc(Cl)cc6Cl)O5)cc4)CC3)cc2)c1=O (some centres undefined)
**A:** 0.524

**Q:** Dear colleague, I am looking for the recorded MIC90 of the following molecule: CC(C)N1CCN(c2ccc(N3CCN(c4ccc(OC[C@@H]5OC[C@@](Cn6cncn6)(c6ccc(F)cc6F)O5)cc4)CC3)cc2)C1=O
**A:** 20

**Q:** Fill blank: measured MIC90 of the molecule CN(C/C=C/C#CC(C)(C)C)Cc1cccc2ccccc12 is ____.
**A:** 0.032

----------
experiment: Minimum inhibitory concentration against Trichophyton species (n=80); assay type: functional; details: Trichophyton; read-out: MIC90
Each entry below lists one item and its recorded MIC90 value.

# annotated cases, reported MIC90 shown
{"columns": ["given smiles", "MIC90"],
 "data": [
  ["CCN1C(=O)N(c2ccc(N3CCN(c4ccc(OC[C@@H]5CO[C@@](Cn6cncn6)(c6ccc(F)cc6F)O5)cc4)CC3)cc2)C(=O)C(C)(C)C1=O", "> 20 µg/mL"],
  ["CCN1C(=O)N(c2ccc(N3CCN(c4ccc(OC[C@@H]5OC[C@@](Cn6cncn6)(c6ccc(F)cc6F)O5)cc4)CC3)cc2)C(=O)C(C)(C)C1=O", "> 20 µg/mL"]
]}

Consider now this further compound.
**Q:** I would be grateful if you could share the reported MIC90 for CCN1C(=O)N(c2ccc(N3CCN(c4ccc(OC[C@H]5OC[C@](Cn6cncn6)(c6ccc(F)cc6F)O5)cc4)CC3)cc2)C(=O)C(C)(C)C1=O .
**A:** > 20 µg/mL
